What Avg. % inhibition was measured for each of the following?
# testedTarget: Human CD4 on CD4+CD25+ regulatory T cells of healthy donors (human, UniProt P01730 26-458)
# procedureSummary: cell-based or functional assay
Give bare numbers, in %.

Past entries and their recorded results:
{"binder": "LC A55G HC R33K (antibody, V domains shown) VH: EEQLVESGGGLVKPGGSLRLSCAASGFSFSDCKMYWLRQAPGKGLEWIGVISVKSENYGANYAESVRGRFTISRDDSKNTVYLQMNSLKTEDTAVYYCSASYYRYDVGAWFAYWGQGTLVTVSS VL: DIVMTQSPDSLAVSLGERATINCRASKSVSTSGYSYIYWYQQKPGQPPKLLIYLGSILESGVPDRFSGSGSGTDFTLTISSLQAEDVAVYYCQHSRELPWTFGQGTKVEIKR", "reportedValue": 12.6}
{"binder": "LC master HC R33K-A63G (antibody, V domains shown) VH: EEQLVESGGGLVKPGGSLRLSCAASGFSFSDCKMYWLRQAPGKGLEWIGVISVKSENYGANYGESVRGRFTISRDDSKNTVYLQMNSLKTEDTAVYYCSASYYRYDVGAWFAYWGQGTLVTVSS VL: DIVMTQSPDSLAVSLGERATINCRASKSVSTSGYSYIYWYQQKPGQPPKLLIYLASILESGVPDRFSGSGSGTDFTLTISSLQAEDVAVYYCQHSRELPWTFGQGTKVEIKR", "reportedValue": 19.7}

Write down Avg. % inhibition measured for item LC L98I HC R33K (antibody, V domains shown) VH: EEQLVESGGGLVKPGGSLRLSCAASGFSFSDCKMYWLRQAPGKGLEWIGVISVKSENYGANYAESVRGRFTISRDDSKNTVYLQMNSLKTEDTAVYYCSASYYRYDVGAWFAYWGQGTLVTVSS VL: DIVMTQSPDSLAVSLGERATINCRASKSVSTSGYSYIYWYQQKPGQPPKLLIYLASILESGVPDRFSGSGSGTDFTLTISSLQAEDVAVYYCQHSREIPWTFGQGTKVEIKR 19.4

Source: patent US20130004513A1
